Assay: protein stability index of a GFP-peptide fusion (GPS, HEK-293T) (PSI 1-6); higher = more stable;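 also: 24-mer peptide tiles fused after GFP, lentivirally expressed, FACS-sorted into six equal bins by GFP/DsRed ratio, decoded by Illumina sequencing, PSI is the read-weighted mean bin number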
Details: treatment: DMSO; c terminus: a fixed tail appended
Quick rule: protein stability index of at least 3 means y, below that means n.

Below, 5 sequences whose answers are already recorded.
{"SEQUENCE": "CFEASDCKESSPMPVICGPEENYP [NANOGP8]", "CAT": "y"}
{"SEQUENCE": "LLKAGADVNKTDHSQRTALHLAAQ [INVS]", "CAT": "y"}
{"SEQUENCE": "IFYGSGIFNYMRLGSTKLSDKDKA [OR3A1]", "CAT": "n"}
{"SEQUENCE": "SGGYWVGMSTIRPNPGFSMLDFLS [APMAP]", "CAT": "n"}
{"SEQUENCE": "DSEHEPVYRAELVGELNGYLRDSS [PWWP2B]", "CAT": "y"}

Query: Check if protein stability index >= 3 (inclusive). Item: MRPTLIDLLPTFRHTLQKLTCEFN [FBXO39]
Response: n

Query: Check if protein stability index >= 3 (inclusive). Item: LHSQEDDDSSSESGSGNGSSTLNP [NOL4L]
Response: y

Query: Check if protein stability index >= 3 (inclusive). Item: IKEIDEHAPGVPRILVGNRLHLAF [RAB40C]
Response: n

Query: Check if protein stability index >= 3 (inclusive). Item: FALASLLQSAPDVKGRVRCLTAGP [ZSWIM9]
Response: n

Query: Check if protein stability index >= 3 (inclusive). Item: ISKKFGDMSYSIRHSISMPAMRNS [TPD52L1]
Response: n

Query: Check if protein stability index >= 3 (inclusive). Item: DDEQYAWESSAGGSFTVRADHGEP [HSP90AB1]
Response: y

Query: Check if protein stability index >= 3 (inclusive). Item: AFVVYLETETLVTREAVTEILGIE [TSN]
Response: n

Query: Check if protein stability index >= 3 (inclusive). Item: MDERLSLLRSPPPPSARHRAHPPQ [KCNA3]
Response: y

Query: Check if protein stability index >= 3 (inclusive). Item: ELVGSGYRMSLVKRRFATGMYLVS [FCHO1]
Response: n

Query: Check if protein stability index >= 3 (inclusive). Item: DLGASSLHVNGESLEMDSDEDDSE [EHMT1]
Response: y

Query: Check if protein stability index >= 3 (inclusive). Item: SWTGDGWEFKLSDPDEVARRWGKR [ETS1]
Response: y

Query: Check if protein stability index >= 3 (inclusive). Item: QSGGRLRRPVNVPLDMFSEEIKFY [KCNA1]
Response: n

Query: Check if protein stability index >= 3 (inclusive). Item: EGHQEGLVELPASFRELLTFFCTN [SCNN1D]
Response: n
